Data provenance: patent US20260139048A1

Exercise: state measured kon for each of the binders provided.
# system-under-test: T1, His-tagged human TIGIT (human, UniProt Q495A1 22-141)
# T1 construct: SPR analyte; also called human TIGIT protein; not shown: His tag
# T1 sequence: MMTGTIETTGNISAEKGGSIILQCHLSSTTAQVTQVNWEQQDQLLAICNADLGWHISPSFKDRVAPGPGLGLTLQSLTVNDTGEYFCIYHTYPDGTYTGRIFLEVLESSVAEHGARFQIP
# method-summary: SPR (Biacore T200), antibody captured, His-tagged TIGIT analyte
One number for each entry, in M⁻¹ s⁻¹.

>  <binder>
huTIGIT-19-2 (antibody, human IgG1, kappa, V domains shown, Humanized IgG; also called 19VH4.M9 + 19VL1.M7) VH: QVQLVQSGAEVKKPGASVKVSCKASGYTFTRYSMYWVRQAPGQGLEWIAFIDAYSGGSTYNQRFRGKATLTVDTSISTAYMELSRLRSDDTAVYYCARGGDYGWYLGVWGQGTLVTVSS VL: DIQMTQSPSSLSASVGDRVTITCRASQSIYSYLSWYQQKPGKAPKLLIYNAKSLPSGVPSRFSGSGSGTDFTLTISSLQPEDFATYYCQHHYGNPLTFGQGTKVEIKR

>  <kon (M⁻¹ s⁻¹)>
1.1e+06

$$$$

I have 8 binders here; please give me kon for each one.
1. huTIGIT-6-3 (antibody, human IgG1, kappa, V domains shown, Humanized IgG; also called 6VH6.M6 + 6VL1.M1) VH: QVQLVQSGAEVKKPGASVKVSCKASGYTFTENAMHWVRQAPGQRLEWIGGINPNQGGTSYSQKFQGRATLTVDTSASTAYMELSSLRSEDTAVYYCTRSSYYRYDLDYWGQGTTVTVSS VL: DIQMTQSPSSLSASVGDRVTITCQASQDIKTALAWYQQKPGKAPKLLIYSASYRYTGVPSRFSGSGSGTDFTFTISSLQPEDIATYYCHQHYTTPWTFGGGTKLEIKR
2. TIGIT-6 chimeric antibody (antibody, human IgG1, kappa, V domains shown, also called 6VH + 6VL) VH: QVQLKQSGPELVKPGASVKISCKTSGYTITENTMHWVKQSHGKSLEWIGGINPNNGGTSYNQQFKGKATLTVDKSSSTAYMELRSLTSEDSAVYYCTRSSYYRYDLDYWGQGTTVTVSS VL: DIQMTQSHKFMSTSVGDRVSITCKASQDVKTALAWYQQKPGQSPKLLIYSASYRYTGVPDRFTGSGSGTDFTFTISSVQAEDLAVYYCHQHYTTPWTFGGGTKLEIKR
3. huTIGIT-6-4 (antibody, human IgG1, kappa, V domains shown, Humanized IgG; also called 6VH6.M7 + 6VL1.M1) VH: QVQLVQSGAEVKKPGASVKVSCKASGYTFTENAMHWVRQAPGQRLEWIGGINPNNAGTSYSQKFQGRATLTVDTSASTAYMELSSLRSEDTAVYYCTRSSYYRYDLDYWGQGTTVTVSS VL: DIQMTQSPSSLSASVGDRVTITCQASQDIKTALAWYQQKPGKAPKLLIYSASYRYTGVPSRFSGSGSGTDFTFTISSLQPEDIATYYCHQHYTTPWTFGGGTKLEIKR
4. TIGIT-19 chimeric antibody (antibody, human IgG1, kappa, V domains shown, also called 19VH + 19VL) VH: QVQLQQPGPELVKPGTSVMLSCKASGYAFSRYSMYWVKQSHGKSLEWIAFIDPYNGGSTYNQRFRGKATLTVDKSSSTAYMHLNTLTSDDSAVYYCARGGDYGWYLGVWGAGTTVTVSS VL: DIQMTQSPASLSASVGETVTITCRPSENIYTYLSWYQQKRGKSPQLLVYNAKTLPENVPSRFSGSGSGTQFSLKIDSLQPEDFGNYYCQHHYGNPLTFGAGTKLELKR
5. Hu1217-2-2 (anti-TIGIT positive control antibody) (antibody, V domains shown) VH: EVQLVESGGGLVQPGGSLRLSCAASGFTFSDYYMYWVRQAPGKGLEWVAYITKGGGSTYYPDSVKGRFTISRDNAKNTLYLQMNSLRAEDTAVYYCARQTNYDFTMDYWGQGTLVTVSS VL: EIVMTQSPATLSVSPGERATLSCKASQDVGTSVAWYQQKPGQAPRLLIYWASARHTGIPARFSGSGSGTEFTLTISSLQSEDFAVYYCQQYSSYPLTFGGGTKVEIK
6. huTIGIT-19-1 (antibody, human IgG1, kappa, V domains shown, Humanized IgG; also called 19VH4.M9 + 19VL1.M4) VH: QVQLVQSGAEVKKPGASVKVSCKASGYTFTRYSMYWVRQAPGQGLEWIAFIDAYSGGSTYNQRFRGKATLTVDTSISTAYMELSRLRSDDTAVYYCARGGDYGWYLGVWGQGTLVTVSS VL: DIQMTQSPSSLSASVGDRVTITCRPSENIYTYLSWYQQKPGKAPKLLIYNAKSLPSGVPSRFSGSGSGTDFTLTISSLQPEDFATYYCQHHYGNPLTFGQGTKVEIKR
7. huTIGIT-6-1 (antibody, human IgG1, kappa, V domains shown, Humanized IgG; also called 6VH6.M4 + 6VL1.M1) VH: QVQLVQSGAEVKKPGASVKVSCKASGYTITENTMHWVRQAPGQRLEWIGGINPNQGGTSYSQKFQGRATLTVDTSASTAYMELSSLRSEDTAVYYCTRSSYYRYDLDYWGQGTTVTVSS VL: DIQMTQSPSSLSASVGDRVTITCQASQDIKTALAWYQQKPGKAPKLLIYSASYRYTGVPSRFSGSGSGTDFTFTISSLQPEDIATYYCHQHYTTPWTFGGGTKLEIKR
8. huTIGIT-19-3 (antibody, human IgG1, kappa, V domains shown, Humanized IgG; also called 19VH4.M10 + 19VL1.M4) VH: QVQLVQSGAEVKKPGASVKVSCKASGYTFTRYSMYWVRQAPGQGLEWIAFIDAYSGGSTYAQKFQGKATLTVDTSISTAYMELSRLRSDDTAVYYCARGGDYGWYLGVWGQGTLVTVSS VL: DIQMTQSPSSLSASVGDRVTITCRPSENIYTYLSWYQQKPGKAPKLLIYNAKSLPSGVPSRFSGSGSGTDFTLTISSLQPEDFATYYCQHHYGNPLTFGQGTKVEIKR

OUTPUT:
340000
520000
330000
1.5e+06
1e+06
1.1e+06
260000
1.1e+06

Entry under test: huTIGIT-3-1 (antibody, human IgG1, kappa, V domains shown, Humanized IgG; also called 3VH3.M4 + 3VL4.M6) VH: EVQLVESGGGLVQPGGSLRLSCAASGFTFSSYGMSWVRQAPGKGLELVATIKSSGGSTNLADSVKGRFTISRDNSKNTLYLQMNSLRAEDTAVYYCVRGYFDYWGQGTTVTVSS VL: DIQMTQSPSSLSASVGDRVTITCRASQDIKTALAWYQQKPGKSPKLLIYWASTRQSGVPSRFSGSGSGTDFTLTISSLQPEDVATYYCQQYYSTPYTFGGGTKVEIKR . Its kon was 570000
